- Tested on: SNB-75 CNS
- TEST_DESCRIPTION: NCI tumour cell line growth inhibition, 48 h; in the data active = GI50 below about 0.43 µM; inactive = the rest
Outcome codes: active, inactive

[[record]]
molecule = "CCCCCCCCCCCCCCCC[N+]1(C)CCOCC1"
label_class = "inactive"

[[record]]
molecule = "COc1ccc(OC)c(Cn2cc3c(c2-c2ccccc2)CCc2cnoc2-3)c1"
label_class = "inactive"

[[record]]
molecule = "O=S(=O)(CCCl)c1ccc(Cl)cc1"
label_class = "inactive"

[[record]]
molecule = "CN1/C(=C\\C=C\\C2=[N+](C)c3ccccc3C2(C)C)C(C)(C)c2ccccc21"
label_class = "active"

[[record]]
molecule = "N#Cc1ccc(NC(=O)C(CC(=O)OCc2ccccc2)NC(=O)OCc2ccccc2)cc1 (stereo not drawn)"
label_class = "inactive"

[[record]]
molecule = "O=C1CCCCN1CCCCC#Cc1cccc(C#Cc2cccnc2)c1"
label_class = "inactive"

[[record]]
molecule = "C(=N\\Nc1nnn(Cc2ccccc2)n1)/c1ccccc1"
label_class = "inactive"

[[record]]
molecule = "CC(C)(C)OC(=O)NCCCCCCCn1c2c(c3ccccc3c1=O)C(=O)c1ccccc1-2"
label_class = "inactive"

[[record]]
molecule = "C=C(CN(C)C)C(=O)c1ccccc1[N+](=O)[O-]"
label_class = "inactive"

[[record]]
molecule = "Cc1cc(I)cc(CN(C)CCCN2CCCC2)c1O"
label_class = "inactive"

[[record]]
molecule = "COC(=O)C1(C)Cc2cc(OC(C)=O)c(OC(C)=O)cc2N1 (stereo not drawn)"
label_class = "inactive"

[[record]]
molecule = "CCCCn1c(-c2ccc(C(=O)O/N=C(\\N)c3ccc4c(c3)OCO4)cc2)nc(-c2ccccc2)c1-c1ccccc1"
label_class = "inactive"

[[record]]
molecule = "Nc1ccc(/C=C/C(=O)NCc2cc3cc(-c4ccc(C(=O)N5CCC(F)(F)CC5)cc4)cc(-c4ccc(F)cc4)c3o2)cn1"
label_class = "inactive"

